Data provenance: the supplement of paper PMC10065799

- study.target: Jak2 (UniProt O60674)
- Sequence (O60674 whole entry, looked up): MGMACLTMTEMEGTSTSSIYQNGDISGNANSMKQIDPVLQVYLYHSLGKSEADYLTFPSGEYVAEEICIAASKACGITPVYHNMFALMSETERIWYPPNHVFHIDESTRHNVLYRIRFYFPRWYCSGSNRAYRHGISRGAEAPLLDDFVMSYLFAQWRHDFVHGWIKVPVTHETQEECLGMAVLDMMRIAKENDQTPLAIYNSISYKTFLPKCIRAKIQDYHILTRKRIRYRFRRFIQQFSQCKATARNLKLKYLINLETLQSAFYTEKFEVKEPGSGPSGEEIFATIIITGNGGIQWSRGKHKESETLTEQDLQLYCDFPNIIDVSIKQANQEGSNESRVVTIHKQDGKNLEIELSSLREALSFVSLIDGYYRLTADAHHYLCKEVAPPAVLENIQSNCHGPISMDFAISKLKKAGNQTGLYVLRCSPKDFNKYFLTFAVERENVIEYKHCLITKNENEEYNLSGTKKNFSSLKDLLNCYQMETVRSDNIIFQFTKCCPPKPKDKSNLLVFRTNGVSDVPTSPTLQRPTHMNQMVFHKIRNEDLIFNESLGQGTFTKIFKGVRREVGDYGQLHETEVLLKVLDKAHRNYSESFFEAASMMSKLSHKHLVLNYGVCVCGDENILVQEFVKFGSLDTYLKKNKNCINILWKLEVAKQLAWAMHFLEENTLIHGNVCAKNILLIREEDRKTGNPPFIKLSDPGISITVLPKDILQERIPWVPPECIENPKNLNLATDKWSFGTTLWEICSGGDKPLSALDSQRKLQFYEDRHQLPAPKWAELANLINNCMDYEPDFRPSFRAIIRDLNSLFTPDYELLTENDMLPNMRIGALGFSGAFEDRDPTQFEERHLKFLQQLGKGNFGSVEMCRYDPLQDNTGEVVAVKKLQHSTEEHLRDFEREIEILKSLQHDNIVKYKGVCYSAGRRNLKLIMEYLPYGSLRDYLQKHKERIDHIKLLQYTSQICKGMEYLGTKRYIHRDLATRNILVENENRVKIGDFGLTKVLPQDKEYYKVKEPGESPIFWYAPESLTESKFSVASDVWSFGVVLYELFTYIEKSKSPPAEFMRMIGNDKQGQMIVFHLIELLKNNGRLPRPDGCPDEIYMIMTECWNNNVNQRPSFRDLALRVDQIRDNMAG
- protocol.description: phosphorylation enrichment, bacterial display (enrichment ratio); higher = better substrate or ligand; peptides without Tyr show the background;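 further: 11-residue human phosphosite peptides and single-mutation variants displayed on the E. coli surface, counted by deep sequencing, each peptide's frequency after selection divided by its frequency in the unselected input library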;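 further: frequency after pTyr selection over input frequency; kinase dosed for 20-30% of maximal phosphorylation in three min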
Classify by measured phosphorylation enrichment: criterion met if it is equal to or exceeds 1, criterion not met if it is smaller.

1. NRLTDYYEPLL [BBS10_Y536]; criterion met
2. KGPNVYKKTVN [REV3L_Y1156]; criterion not met
3. DPEATYTTSGG [EPHA2_Y772]; criterion met
4. DHCNQYEQQKM [CHD7_Y75_Y72C]; criterion not met
5. LYSINYLHFGD [KDM4C_Y201_E206D]; criterion met
6. FQKNSYSEELR [LMNA_Y211_I210S]; criterion not met
7. SSSGGYGGGYG [KRT19_Y61_A60G]; criterion not met
8. LIDSSYLTRTA [GREB1L_Y1063]; criterion not met
9. KRISCYEASYQ [PFKFB3_Y194]; criterion not met
10. QTEGEYSSLEH [IDH3B_Y171]; criterion met
11. DEDEEYEYMNR [ERBB3_Y1197]; criterion met
12. QKMADYSNKLY [PDPR_Y104]; criterion not met
13. EPDSLYGCGRG [ATM_Y2019_G2023R]; criterion not met
14. GRERPYGGGGG [FUS_Y526_R521G]; criterion not met
15. FDDDDYDTDFV [BLM_Y296]; criterion not met
16. MANFMYKAGPS [MAML2_Y515_YF]; criterion not met
17. TSFSGYRCHRH [NKAPL_Y94_Y96C_YF]; criterion not met
18. EKQLLYSENKT [FRK_Y132]; criterion not met
19. FLLTVYSIFSK [SGCE_Y38]; criterion met
20. CPEARYNRSPI [PTAR1_Y42]; criterion not met
21. YEDALYTVLHR [UNC13D_Y61]; criterion met
22. GEVLVYAEDPA [FLNA_Y319_V320A]; criterion not met
23. WKEREYEVVRD [CPS1_Y634_I632R]; criterion not met
24. HLVSEYQQFQD [TUBB3_Y422_D417H_YF]; criterion not met
25. KDGSGYISAAE [CALM1_Y100_N98S]; criterion not met
26. SIKDKYVTAFY [KCNH2_Y611_L615F]; criterion not met
27. LRNRVYEVPVE [SLC26A3_Y756]; criterion met
